Each recorded value in this set is attributed to ChEMBL document CHEMBL1123676.

Assay: Ratio of kinetic constant kcat / KM of porcine pepsin
Non-standard residues stand in square brackets, D forms with d. Residues, ends and D or L forms follow the SMILES beside them. ξ: configuration not given here. *: point of attachment. Cbz = O=C(OCc1ccccc1)*; ξL = CC(C)CC(N)C(=O)O; ξA = CC(N)C(=O)O
readout_name: Ratio

(A) COC(=O)CNC(=O)[C@H](Cc1ccccc1)NC(=O)[C@H](Cc1c[nH]cn1)NC(=O)OCc1ccccc1 (Cbz-His-Phe-Gly-OMe)
(B) COC(=O)C(Cc1ccccc1)NC(=O)[C@H](Cc1ccccc1)NC(=O)[C@H](Cc1c[nH]cn1)NC(=O)OCc1ccccc1 (some centres undefined)
(C) COC(=O)C(CC(C)C)NC(=O)[C@H](Cc1ccccc1)NC(=O)[C@H](Cc1c[nH]cn1)NC(=O)OCc1ccccc1 (stereo partly drawn) (Cbz-His-Phe-[ξL]-OMe)
(D) COC(=O)C(C)NC(=O)[C@H](Cc1ccccc1)NC(=O)[C@H](Cc1c[nH]cn1)NC(=O)OCc1ccccc1 (stereo partly drawn) (Cbz-His-Phe-[ξA]-OMe)
Data request: Arrange the 4 molecules by rising Ratio, starting with the smallest. Show the ranking through the labels, in the order asked for.
Data returned: A, D, C, B

----------
Target: Pepsin A (Sus scrofa)
Sequence (P00791 whole entry): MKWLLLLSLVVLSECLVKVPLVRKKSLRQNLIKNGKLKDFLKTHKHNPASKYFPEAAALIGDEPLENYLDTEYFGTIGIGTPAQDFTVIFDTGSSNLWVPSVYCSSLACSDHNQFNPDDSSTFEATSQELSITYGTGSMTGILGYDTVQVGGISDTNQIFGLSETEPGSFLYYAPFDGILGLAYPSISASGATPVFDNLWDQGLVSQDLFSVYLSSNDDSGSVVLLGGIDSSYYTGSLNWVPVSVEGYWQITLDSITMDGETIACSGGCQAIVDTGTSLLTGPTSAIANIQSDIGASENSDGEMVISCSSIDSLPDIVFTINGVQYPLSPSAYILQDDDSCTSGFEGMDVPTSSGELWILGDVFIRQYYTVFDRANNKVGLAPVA
Test: Inhibition of porcine pepsin
readout_name: Ki (nM)

Data request: # lookup: Ki of CC(C)CCNC(=O)C(C)NC(=O)CC(=O)C(CC(C)C)NC(=O)C(NC(=O)CC(C)C)C(C)C (stereo unspecified)
Data returned: 56

Data request: Given the molecule CC(C)CCNC(=O)CNC(=O)C[C@H](O)C(CC(C)C)NC(=O)C(NC(=O)CC(C)C)C(C)C (stereo partly specified) , what is its reported Ki?
Data returned: 56

Data request: So what's the measured Ki for this one? CC(C)CCNC(=O)C(C)NC(=O)[C@@H](CC(=O)[C@H](CC(C)C)NC(=O)C(NC(=O)CC(C)C)C(C)C)Cc1ccccc1 (stereo partly specified)
Data returned: 850

Data request: Name the recorded Ki for CC(C)CCNC(=O)C(C)NC(=O)C(C)C[C@H](O)[C@H](CC(C)C)NC(=O)C(NC(=O)CC(C)C)C(C)C (stereo partly specified) .
Data returned: 3

Data request: For CC(C)CCNC(=O)C(C)NC(=O)C(C)CC(=O)[C@H](CC(C)C)NC(=O)C(NC(=O)CC(C)C)C(C)C (stereo partly specified) , what is its reported Ki?
Data returned: 27

(I) CC(C)CCNC(=O)C(C)C[C@H](O)[C@H](CC(C)C)NC(=O)C(NC(=O)CC(C)C)C(C)C (stereo partly specified)
(II) CC(C)CCNC(=O)C(C)NC(=O)[C@H](Cc1ccccc1)C[C@H](O)[C@H](CC(C)C)NC(=O)C(NC(=O)CC(C)C)C(C)C (stereo partly specified)
(III) CC(C)CCNC(=O)C(C)NC(=O)C(Cc1ccccc1)C[C@H](O)[C@H](CC(C)C)NC(=O)C(NC(=O)CC(C)C)C(C)C (stereo partly specified)
Data request: Order the records, beginning with the lowest Ki and ending with the highest. Sort the labels as requested; that list is your answer.
Data returned: III, I, II
(III: 2.5 nM, I: 27 nM, II: 140 nM)

(I) CC(C)CCNC(=O)C(C)NC(=O)CCC(=O)[C@H](CC(C)C)NC(=O)C(NC(=O)CC(C)C)C(C)C (stereo partly specified)
(II) CC(C)CCNC(=O)C(C)NC(=O)C(CC(=O)[C@H](CC(C)C)NC(=O)C(NC(=O)CC(C)C)C(C)C)Cc1ccccc1 (stereo partly specified)
(III) CC(C)CCNC(=O)C(C)NC(=O)CC[C@H](O)[C@H](CC(C)C)NC(=O)C(NC(=O)CC(C)C)C(C)C (stereo partly specified)
Data request: Arrange items by their Ki values in increasing order. Put the labels in the requested order and write them down.
Data returned: III, II, I
(III: 50 nM, II: 72 nM, I: 2140 nM)
